system: TSSK1B; details: concentration: 1 μM,replicates: in singlicate; n = 1;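 note: KINOMEscan kinase panel screen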

molecule | %Inh / %
CCNCC(Cc1ccccc1)NC(=O)c1cc(Br)c(-c2ccnc3[nH]ccc23)s1.Cl.Cl (centres unmarked) | 60
Cl.Cl.NC[C@H](CC1CCCCC1)NC(=O)c1ccc(-c2ccnc3[nH]ccc23)s1 | 84
CCn1c(-c2nonc2N)nc2cncc(CNC3CCNCC3)c21.Cl | 55
COC(=O)c1cccc(NC(=O)NC2CCN(c3ccnc(Nc4cc(OC)c(OC)c(OC)c4)n3)C2)c1 (centres unmarked) | 9
C[C@@H]1CCN(C(=O)N2CCCC2)C[C@@H]1N(C)c1ncnc2[nH]ccc12 | 5
FC(F)(F)c1cc(Br)cc(Nc2nccc(-c3cnn4ncccc34)n2)c1 | 5
Cc1cccc2c(-c3ccncc3)c(-c3ccc(F)cc3)nn12.Cl | 4
CC(C(=O)NC1CCN(c2ccnc(Nc3ccc(F)cc3)n2)C1)c1ccc(Cl)cc1 (centres unmarked) | 0

This collection of values is drawn from paper PMC5540273.
